Taken from patent US7700593B2.

Measured IC50 by item
Tested on: THP1 cells
Experiment: Lipopolysaccharide-activated THP1 cell TNF production assay
Format: cell-based, human
Settings: Homo sapiens, THP-1; LPS-induced TNF-α production in THP1 cells

Please review the following examples before continuing.
Smiles Str: Cc1c(F)cc(C(=O)NC2CC2)cc1-c1ccn2c(C(C)(C)C)nnc2c1
IC50: < 25 nM
--
Smiles Str: Cc1ccc(C(=O)Nc2ccnn2C)cc1-c1ccn2c(-c3ccc(F)cc3C)nnc2c1
IC50: < 25 nM
--
Smiles Str: Cc1ccc(C(=O)NC2CC2)cc1-c1ccn2c(-c3sccc3Cl)nnc2c1
IC50: < 25 nM
--
Smiles Str: Cc1ccc(C(=O)NC2CC2)cc1-c1ccn2c(-c3sccc3C)nnc2c1
IC50: 25 to 100 nM

IN: Please look up its IC50: "Cc1ccc(C(=O)Nc2ccnn2C)cc1-c1ccn2c(-c3ccccc3Cl)nnc2c1"
OUT: < 25 nM

IN: Find the recorded IC50 belonging to "Cc1cc(F)c(C(=O)Nc2ccnn2C)cc1-c1ccn2c(-c3c(F)cccc3Cl)nnc2c1" and report it.
OUT: < 25 nM

IN: IC50 lookup needed for "Cc1ccc(C(=O)NC2CC2)cc1-c1ccn2c(-c3ccc(S(C)(=O)=O)cc3)nnc2c1" , thanks.
OUT: 1000 to 5000 nM

IN: Would you mind telling me what IC50 value was observed for "Cc1ccc(C(=O)Nc2ccon2)cc1-c1ccn2c(-c3c(F)cccc3F)nnc2c1" ?
OUT: < 25 nM

IN: Any idea what IC50 was measured for "Cc1ccc(C(=O)Nc2ccnn2C)cc1-c1ccn2c(-c3cnccc3C(F)(F)F)ncc2c1" ?
OUT: 25 to 100 nM

IN: What value of measured IC50 is listed for "Cc1ccc(C(=O)NC2CC2)cc1-c1ccn2c([C@@H](C)C(F)(F)F)nnc2c1" ?
OUT: 25 to 100 nM

IN: Look up IC50: "CCc1ccccc1-c1nnc2cc(-c3cc(C(=O)NC4CC4)ccc3C)ccn12"
OUT: 25 to 100 nM

====

Tested on: THP1 cells
Experiment: Lipopolysaccharide-activated THP1 cell TNF production assay
Assay type: cell-based, human
Conditions: Homo sapiens, THP-1; LPS-induced TNF-α production in THP1 cells
Description: Lipopolysaccharide-Activated THP1 Cell TNF Production Assay THP1 cells are resuspended in fresh THP1 media (RPMI 1640, 10% heat-inactivated FBS, 1×PGS, 1×NEAA, plus 30 μM βME) at a concentration of 1E6/mL. One hundred microliters of cells per well are plated in a polystyrene 96-well tissue culture. […] After a 2 h incubation at room temperature with shaking, the reaction is read on the ECL M8 Instrument (IGEN Inc.). […]
pIC50: −log10 of the molar value.
Measurement Type: pIC50

In the examples that follow, each entry is paired with its recorded pIC50.
Smiles Str: Cc1ncoc1-c1nnc2cc(-c3cc(C(=O)NC4CC4)cc(F)c3C)ccn12
Measurement Type: pIC50
Measurement: 6.60 to 7.00
//
Smiles Str: Cc1ccc(C(=O)NC2CC2)cc1-c1cc2nnc(-c3ccccc3Cl)n2cc1C
Measurement Type: pIC50
Measurement: > 7.60
//
Smiles Str: Cc1ccc(C(=O)NC2CC2)cc1-c1ccn2c(Nc3ccccc3)nnc2c1
Measurement Type: pIC50
Measurement: 6.00 to 6.60
//
Smiles Str: Cc1ccc(C(=O)NC2CC2)cc1-c1ccn2c(N(C)c3ccccc3)nnc2c1
Measurement Type: pIC50
Measurement: 7.00 to 7.60
//
Smiles Str: CCNC(=O)c1ccc(C)c(-c2ccn3c(-c4ccccc4Cl)nnc3c2)c1
Measurement Type: pIC50
Measurement: 6.60 to 7.00

IN: Which pIC50 value belongs to "Cc1ccc(C(=O)NC2CC2)cc1-c1ccn2c(-c3cccc(F)c3Cl)nnc2c1" ?
OUT: 7.00 to 7.60

IN: Dear colleague, I am looking for the recorded pIC50 of the following molecule: "Cc1ccccc1-c1nnc2cc(-c3cc(C(=O)NC4CC4)cc(F)c3C)ccn12"
OUT: > 7.60

IN: What value of pIC50 has been reported for the following molecule? "Cc1ccc(C(=O)Nc2ccnn2C)cc1-c1ccn2c(-c3cc(F)ccc3Cl)nnc2c1"
OUT: > 7.60

IN: Field request: pIC50 | item: "Cc1cccc(F)c1-c1nnc2cc(-c3cc(C(=O)NC4CC4)cc(F)c3C)ccn12"
OUT: > 7.60

IN: pIC50 lookup needed for "Cc1c(F)cc(C(=O)Nc2ccnn2C)cc1-c1ccn2c(-c3c(F)cccc3Cl)nnc2c1" , thanks.
OUT: 7.00 to 7.60

IN: Which measured pIC50 value corresponds to "Cc1c(F)cc(C(=O)NC2CC2)cc1-c1ccn2c(-c3c(F)cccc3F)nnc2c1" ?
OUT: > 7.60

IN: Requested read-out: pIC50. Entry: "Cc1ccc(C(=O)NC2CC2)cc1-c1cc(C)n2c(-c3ccccc3Cl)nnc2c1"
OUT: > 7.60

IN: Item under review: "Cc1c(F)cc(C(=O)NC2CC2)cc1-c1ccn2c(C(C)(C)C)nnc2c1C" . Reported pIC50?
OUT: 7.00 to 7.60

IN: Entry under review: "Cc1ccc(C(=O)NC2CC2)cc1-c1ccn2c(-c3ccccc3Cl)nnc2c1C" . Reported pIC50?
OUT: 7.00 to 7.60
